B1: ZNF75A (parent)
chain: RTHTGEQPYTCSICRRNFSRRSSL

# Variants of: B1
# Protocol description: protein stability index of a GFP-peptide fusion (GPS, HEK-293T) (PSI 1-6); higher = more stable;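 also: lentivirally expressed fusions sorted by FACS into six bins by GFP to DsRed ratio, PSI derived from sequencing read proportions per bin multiplied by bin number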
# Conditions used: c terminus: a fixed tail appended
Response key: satisfied means protein stability index >= 3; not satisfied means protein stability index < 3.

Change: G5S
Assigned label: not satisfied
--
Change: L24D
Assigned label: not satisfied
--
Change: R1D
Assigned label: satisfied
--
Change: Q7F
Assigned label: not satisfied
--
Change: T2L
Assigned label: not satisfied
--
Change: S22R
Assigned label: satisfied
--
Change: S22A
Assigned label: not satisfied
--
Change: R1E
Assigned label: satisfied
--
Change: S12L
Assigned label: not satisfied
--
Change: S22G
Assigned label: not satisfied
--
Change: C11G
Assigned label: satisfied
--
Change: R16T
Assigned label: not satisfied
--
Change: C11P
Assigned label: satisfied
--
Change: P8Y
Assigned label: satisfied
--
Change: R16A
Assigned label: not satisfied
--
Change: H3T
Assigned label: not satisfied
--
Change: I13C
Assigned label: not satisfied
--
Change: G5Y
Assigned label: not satisfied
--
Change: I13A
Assigned label: not satisfied
--
Change: N17Q
Assigned label: satisfied
--
Change: L24H
Assigned label: satisfied
--
Change: S19W
Assigned label: not satisfied
--
Change: R16F
Assigned label: not satisfied
--
Change: L24C
Assigned label: not satisfied
--
Change: C11I
Assigned label: satisfied
--
Change: C14G
Assigned label: satisfied
--
Change: F18R
Assigned label: satisfied
--
Change: T4K
Assigned label: not satisfied
--
Change: R21G
Assigned label: not satisfied
--
Change: R16N
Assigned label: not satisfied
--
Change: R21N
Assigned label: not satisfied
--
Change: G5V
Assigned label: not satisfied
--
Change: R21Y
Assigned label: not satisfied
--
Change: R16E
Assigned label: not satisfied
--
Change: F18N
Assigned label: not satisfied
--
Change: S12I
Assigned label: not satisfied
--
Change: F18D
Assigned label: not satisfied
--
Change: Y9Q
Assigned label: not satisfied
--
Change: R16S
Assigned label: not satisfied
--
Change: Q7K
Assigned label: not satisfied
--
Change: Q7A
Assigned label: satisfied
--
Change: T10R
Assigned label: not satisfied
--
Change: Q7T
Assigned label: not satisfied
--
Change: S23F
Assigned label: not satisfied
